# MEASUREMENT_NOTES: Statistical significance (p value) compared to positive control by Students t-test
# Format: ADME
ENDPOINT: Significance

Some compounds with recorded Significance:
COc1c(OC)c(OC(C)=O)c2c(Sc3ccccc3)cccc2c1OC(C)=O; <= 0.001
COc1c(OC)c(OC(C)=O)c2ccccc2c1OC(C)=O; <= 0.05
CCOc1c(OCC)c(OC(=O)C(C)(C)C)c2cc(Cl)ccc2c1OC(=O)C(C)(C)C; <= 0.001
COc1ccc2c(OC(C)=O)c(OC)c(OC)c(OC(C)=O)c2c1; <= 0.001
COc1c(OC)c(OC(=O)C(C)C)c2cc(C)c(C)cc2c1OC(=O)C(C)C; <= 0.001

Ask: Look up and report measured Significance for this entry: COc1c(OC)c(OC(C)=O)c2cc(C)c(C)cc2c1OC(C)=O
Result: <= 0.001

Ask: Look up and report measured Significance for this entry: CCC(=O)Oc1c(OC)c(OC)c(OC(=O)CC)c2c(OC)cccc12
Result: <= 0.001
